# procedureText: basal RPMI8226 mitochondrial membrane potential changes, profiling panel, cell-based, JC-1 fluorescence, 24 h, 100 nL compound (AID 1169); note: test concentration not given here
# assayConditions: RPMI8226 myeloma, JC-1 mitochondrial potential fluorescence, higher = more signal

[
  {
    "compound": "CC(C)C[C@@H]1NC(=O)[C@H](C(C)C)NC(=O)[C@@]23C(=O)N[C@@H](Cc4ccccc4)C2[C@H](C)[C@@]2(C)O[C@H]2C3/C=C/CC/C=C/CNC1=O (stereo partly specified)",
    "z-score": 0.0651
  },
  {
    "compound": "CCCC[C@H]1OB(O)C[C@H]2C1=C(COC)C[C@H]1C(=O)N(C)C(=O)[C@H]12",
    "z-score": -0.528
  },
  {
    "compound": "CN(C)CCCC[C@@H]1NC(=O)[C@@H]2C[C@H](C(=O)NCCCCCCN)[C@H](c3cccc(OCCO)c3)N2C1=O",
    "z-score": -0.17
  },
  {
    "compound": "N#Cc1ccc(NN2C(C(O)C(c3ccccc3)c3ccccc3)C=CC3C(=O)N(c4ccccc4)C(=O)C32)cc1 (stereo unspecified)",
    "z-score": -0.812
  },
  {
    "compound": "O=C(NCCO)C1=C[C@H](Oc2ccccc2I)[C@@H](O)[C@H](N(Cc2ccco2)C(=O)Cc2ccccc2)C1",
    "z-score": -0.084
  },
  {
    "compound": "C=CCN1C(=O)[C@@]2(Cc3ccccc31)N=C(c1ccc(OCCCO)cc1)O[C@H]2c1ccccc1",
    "z-score": -0.942
  },
  {
    "compound": "C=C(COC)C(=O)CC[C@@H](OC(C)=O)c1ccc(CO)o1",
    "z-score": -0.548
  },
  {
    "compound": "O=C1C[C@@](C(=O)NCCN2CCOCC2)(c2ccc([N+](=O)[O-])cc2)[C@@H](c2ccc(CO)cc2I)N1CC12CC3CC(CC(C3)C1)C2",
    "z-score": -0.93
  },
  {
    "compound": "CC[C@@H]1C=C(C(=O)O)[C@H](c2ccc(Br)cc2)N1S(=O)(=O)c1ccc(C)cc1",
    "z-score": -0.0108
  },
  {
    "compound": "CCCC[C@H]1OB(O)C[C@H]2C1=C(COC)Cn1c(=O)n(-c3ccccc3)c(=O)n12",
    "z-score": 0.454
  },
  {
    "compound": "CCCCCN1CC=CC23O[C@@H]4/C=C\\CCC(C)OC(=O)C4[C@H]2C(=O)N(C(C)CO)[C@@H]3C1=O (stereo partly specified)",
    "z-score": 0.724
  },
  {
    "compound": "O=C1C[C@@](C(=O)NCCN2CCOCC2)(c2ccc([N+](=O)[O-])cc2)[C@@H](c2ccc(CO)cc2)N1CC12CC3CC(CC(C3)C1)C2",
    "z-score": -0.893
  },
  {
    "compound": "COC(=O)[C@@]1(Cc2ccc(F)cc2)[C@H]2c3cc(C(=O)N4CCCC4)n(Cc4ccc(S(C)(=O)=O)cc4)c3C[C@H]2CN1C(=O)c1ccccc1",
    "z-score": 0.611
  },
  {
    "compound": "Cc1ccccc1C(O)C1C=CC2C(=O)N(c3ccccc3)C(=O)C2N1Nc1ccc(C(C)C)cc1 (stereo unspecified)",
    "z-score": -0.754
  },
  {
    "compound": "CCCCC(CC)C(O)C1C=CC2C(=O)N(Cc3ccccc3)C(=O)C2N1n1cnnc1 (stereo unspecified)",
    "z-score": 0.447
  },
  {
    "compound": "O=C(NCCN1CCOCC1)[C@@H]1c2ccccc2C(=O)N(C2CCCCC2)[C@H]1c1ccc(CO)cc1",
    "z-score": 0.0842
  }
]

* * *

# procedureText: small-molecule binders of probe aNOTCH2, primary screen, biochemical, small-molecule microarray, 635/667 nm fluorescence (AID 1121);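 note: score merges feature fluorescence read at 667 nm with its signal to noise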
# assayConditions: higher = more signal
propertyName: composite z-score

[
  {
    "compound": "CC(C)C(=C=CC[C@H](O)c1ccc(OCCO)cc1)CCO",
    "propertyName": "composite z-score",
    "obsValue": -0.174
  },
  {
    "compound": "CN(C)CCCCCCNC(=O)[C@@H]1C[C@@H]2C(=O)N[C@@H](Cc3ccccc3)C(=O)N2[C@@H]1c1ccc(O)cc1",
    "propertyName": "composite z-score",
    "obsValue": -0.0276
  },
  {
    "compound": "CN(C)CCCCCCNC(=O)[C@H]1C[C@H]2C(=O)N[C@@H](CCCCN)C(=O)N2[C@H]1c1cccc(OCCO)c1",
    "propertyName": "composite z-score",
    "obsValue": 0.986
  },
  {
    "compound": "CC(C)=CCCC(C)=CC(O)C1C=CC2C(=O)N(C)C(=O)C2N1Nc1ccccc1 (stereo not drawn)",
    "propertyName": "composite z-score",
    "obsValue": -0.011
  },
  {
    "compound": "C=CC(=C)[C@H]1Oc2ccccc2S(=O)(=O)N2CCC[C@@H]12",
    "propertyName": "composite z-score",
    "obsValue": -0.156
  },
  {
    "compound": "O=C1C[C@@](C(=O)NCC(F)(F)F)(c2ccc([N+](=O)[O-])cc2)[C@@H](c2ccc(CO)cc2I)N1C1CCCCC1",
    "propertyName": "composite z-score",
    "obsValue": -0.0394
  },
  {
    "compound": "C[N+](C)(C)CCCC[C@@H]1NC(=O)[C@H]2C[C@@H](C(=O)NCCCCCCNC(=O)CS)[C@@H](c3cccc(OCCO)c3)N2C1=O",
    "propertyName": "composite z-score",
    "obsValue": -0.146
  },
  {
    "compound": "COc1cc2c(cc1O)C(C1CC1)N(Cc1sc3ccccc3c1Cl)CC2 (stereo not drawn)",
    "propertyName": "composite z-score",
    "obsValue": -0.0984
  }
]

* * *

# procedureText: E. coli acrAB mutant growth effects, primary screen, E. coli filamentation inducers, strain DRC39, OD650, 48 h (AID 1179);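 note: screen aims at cell division blockers that make cells filament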
# assayConditions: E. coli DRC39 delta-acrAB growth, higher = more signal, called active from +8 up or from −8 down
# label = condition met if z-score >= -0.006 else condition not met

[
  {
    "compound": "COc1cc(C(O)C2C=CC3C(=O)NC(=O)C3N2Nc2ccccn2)cc(OC)c1OC (configuration not stated)",
    "assignedCategory": "condition not met"
  },
  {
    "compound": "COC(=O)[C@@]1(Cc2ccc(OC)cc2)[C@H]2c3cc(C(=O)N(C)C)n(CCc4ccccn4)c3C[C@H]2CN1C(=O)c1ccccc1",
    "assignedCategory": "condition not met"
  },
  {
    "compound": "CO[C@H]1O[C@H](CO)[C@@H](OC(=O)Nc2cccc(F)c2)[C@H](OC(=O)Nc2ccccc2)[C@@H]1OC(=O)Nc1ccccc1",
    "assignedCategory": "condition met"
  },
  {
    "compound": "C=CCC(OC(C)=O)[C@@H]1[C@@H](N(Cc2ccc(-c3ccccc3)cc2)C(=O)c2cccc3ccccc23)c2cc(OCCCO)ccc2N1C(=O)c1ccc(-c2ccccc2)cc1 (some centres not stated)",
    "assignedCategory": "condition met"
  },
  {
    "compound": "COC(=O)[C@@]1(Cc2ccc(F)cc2)[C@H]2c3cc(C(=O)N(C)C)n(Cc4ccccc4)c3C[C@H]2CN1C(=O)c1ccccc1",
    "assignedCategory": "condition met"
  },
  {
    "compound": "O=C1C2C=CC(C(O)CCc3ccccc3)N(Nc3ccccc3F)C2C(=O)N1c1ccccc1 (configuration not stated)",
    "assignedCategory": "condition met"
  },
  {
    "compound": "COC(=O)C[C@H]1O[C@]2(C(=O)N(C)c3ccccc32)[C@@H](C)[C@@H]1[Si](C)(C)F",
    "assignedCategory": "condition met"
  }
]

* * *

# procedureText: modulators of S6 phosphorylation in cells, primary screen, cell-based, A549, cytoblot, luminescence, serum-stimulated (AID 1158);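 note: serum-stimulated A549 lung adenocarcinoma cells; signal is phosphorylated S6 detected by cytoblot immunostaining with HRP secondary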
# assayConditions: A549 phospho-S6 cytoblot, 5 h, higher = more signal
Measured z-score, listed per entry.

[
  {
    "compound": "CC(C)C[C@@H]1NC(=O)[C@H](C(C)C)NC(=O)[C@@]23C(=O)N[C@@H](Cc4ccccc4)C2[C@H](C)[C@@]2(C)O[C@H]2C3/C=C/CC/C=C/CNC1=O (stereo partly specified)",
    "z-score": 0.116
  },
  {
    "compound": "Cc1ccccc1C(O)C1C=CC2C(=O)N(c3ccccc3)C(=O)C2N1Nc1ccc(C(C)C)cc1 (stereo unspecified)",
    "z-score": -0.405
  },
  {
    "compound": "CC1CC/C=C\\[C@H]2OC34C=CCN(C(C)(C)C)C(=O)[C@H]3N(C(C)CO)C(=O)[C@@H]4C2C(=O)O1 (stereo partly specified)",
    "z-score": 0.021
  },
  {
    "compound": "CCCCC(CC)C(O)C1C=CC2C(=O)N(Cc3ccccc3)C(=O)C2N1n1cnnc1 (stereo unspecified)",
    "z-score": -0.908
  },
  {
    "compound": "CCCCN1CC=CC23O[C@@H]4C=CCCOC(=O)C4[C@H]2C(=O)N(CCCCCCO)[C@@H]3C1=O (stereo partly specified)",
    "z-score": -0.493
  },
  {
    "compound": "CCOC(=O)C[C@H]1[C@H](OC(=O)c2cc3ccccc3oc2=O)[C@@H](NC(=O)c2ccccc2)c2cc(OCCCO)ccc2N1C(=O)c1ccc2ccccc2n1",
    "z-score": -0.253
  },
  {
    "compound": "O=C1c2ccccc2[C@](Cc2ccccc2I)(C(=O)NCCN2CCOCC2)[C@H](c2ccc(CO)cc2)N1C1CCCCC1",
    "z-score": -0.164
  },
  {
    "compound": "CCC(CC)C(O)C1C=CC2C(=O)NC(=O)C2N1Nc1ccccn1 (stereo unspecified)",
    "z-score": -0.534
  },
  {
    "compound": "O=C1OCCC/C=C\\[C@H]2OC34C=CCN(Cc5ccccc5)C(=O)[C@H]3N(CCCO)C(=O)[C@@H]4C12 (stereo partly specified)",
    "z-score": -0.506
  },
  {
    "compound": "CC1(C)[C@@H]2CC(C(O)C3C=CC4C(=O)N(Cc5ccccc5)C(=O)C4N3n3cnnc3)=C[C@H]1C2 (stereo partly specified)",
    "z-score": -0.688
  },
  {
    "compound": "COC(=O)[C@@]1(CCS(=O)(=O)c2ccccc2)N=C(c2ccc(OCCCO)cc2)O[C@H]1c1ccccc1CN=[N+]=[N-]",
    "z-score": 0.208
  },
  {
    "compound": "CC(C)C(=C=CC[C@H](O)c1ccc(OCCO)cc1)CCO",
    "z-score": -0.365
  },
  {
    "compound": "Cc1ccc(N2C(=O)c3ccccc3[C@@H](C(=O)NC3CC3)[C@@H]2c2ccc(CO)cc2)nc1",
    "z-score": -0.179
  },
  {
    "compound": "OCCCC1=CC(c2cccs2)N(Cc2cc3c(cc2Br)OCO3)CC1 (stereo unspecified)",
    "z-score": -0.684
  },
  {
    "compound": "COC(=O)[C@@]1(Cc2ccccc2)[C@H]2c3cc(C(=O)N4CCCC4)n(Cc4ccc(S(C)(=O)=O)cc4)c3C[C@H]2CN1C(=O)c1ccccc1",
    "z-score": -0.121
  },
  {
    "compound": "COc1ccc([Si](C)(C)[C@H]2[C@H](CC(=O)N3Cc4ccccc4C[C@H]3CO)O[C@@]3(C(=O)N(Cc4cccc(N5CCC5=O)c4)c4ccccc43)[C@@H]2C)cc1",
    "z-score": -0.0301
  }
]
